# System: Staphylococcus aureus
# assay-name: Antistaphylococcal activity against gentamicin-resistant Staphylococcus aureus NRS-108 after 18 hrs by two-fold serial dilution method
# Assay type: functional
# experimental-context: NRS-108, 18 h
experimental-readout: MIC

smiles-record	experimental-readout	result
CC(C)c1cc2c(cc1Br)[C@@]1(C)CCC[C@@](C)(C(=O)O)[C@@H]1C/C2=N\OCCNS(=O)(=O)c1ccc(F)cc1	MIC	1.56 to 3.13 mg/L
CC(C)c1cc2c(cc1Br)[C@@]1(C)CCC[C@@](C)(C(=O)O)[C@@H]1C/C2=N\OCCNS(=O)(=O)c1ccc(Br)c(C(F)(F)F)c1	MIC	0.78 to 1.56 mg/L
CC(C)c1cc2c(cc1Br)[C@@]1(C)CCC[C@@](C)(C(=O)O)[C@@H]1C/C2=N\OCCNS(=O)(=O)c1ccc(Cl)cc1	MIC	1.56 to 3.13 mg/L

###

Below, each of the compounds is paired with its reported MIC value.
# System: Staphylococcus aureus
# assay-name: Antistaphylococcal activity against oxacillin/tetracycline-resistant Staphylococcus aureus NRS-100 after 18 hrs by two-fold serial dilution method
# Format: functional
# experimental-context: NRS-100, 18 h

compound	measurement-target	MIC
CC(C)c1cc2c(cc1Br)[C@@]1(C)CCC[C@@](C)(C(=O)O)[C@@H]1C/C2=N\OCCNS(=O)(=O)c1ccc(Cl)cc1	Staphylococcus aureus	1.56 to 3.13 µg/mL
CC(C)c1ccc2c(c1)CC[C@H]1[C@](C)(C(=O)O)CCC[C@]21C [DEHYDROABIETIC ACID]	Staphylococcus aureus	12.5 to 25 µg/mL
CC(C)c1cc2c(cc1Br)[C@@]1(C)CCC[C@@](C)(C(=O)O)[C@@H]1C/C2=N\OCCNS(=O)(=O)c1cccc2cccnc12	Staphylococcus aureus	3.13 to 6.25 µg/mL
CC(C)c1cc2c(cc1Br)[C@@]1(C)CCC[C@@](C)(C(=O)O)[C@@H]1C/C2=N\OCCNS(=O)(=O)c1ccccc1	Staphylococcus aureus	1.56 to 3.13 µg/mL
CC(C)c1cc2c(cc1Br)[C@@]1(C)CCC[C@@](C)(C(=O)O)[C@@H]1C/C2=N\OCCNS(=O)(=O)c1cccc(Br)c1	Staphylococcus aureus	1.56 to 3.13 µg/mL
CC(C)c1cc2c(cc1Br)[C@@]1(C)CCC[C@@](C)(C(=O)O)[C@@H]1C/C2=N\OCCNS(=O)(=O)c1cc(C(F)(F)F)cc(C(F)(F)F)c1	Staphylococcus aureus	> 50 µg/mL
CC(C)c1cc2c(cc1Br)[C@@]1(C)CCC[C@@](C)(C(=O)O)[C@@H]1C/C2=N\OCCNS(=O)(=O)c1ccccc1F	Staphylococcus aureus	3.13 to 6.25 µg/mL
CC(C)c1cc2c(cc1Br)[C@@]1(C)CCC[C@@](C)(C(=O)O)[C@@H]1C/C2=N\OCCNS(=O)(=O)c1ccccc1Br	Staphylococcus aureus	1.56 to 3.13 µg/mL
CN[C@H](CC(C)C)C(=O)N[C@H]1C(=O)N[C@@H](CC(N)=O)C(=O)N[C@H]2C(=O)N[C@H]3C(=O)N[C@H](C(=O)N[C@H](C(=O)O)c4cc(O)cc(O)c4-c4cc3ccc4O)[C@H](O)c3ccc(c(Cl)c3)Oc3cc2cc(c3O[C@@H]2O[C@H](CO)[C@@H](O)[C@H](O)[C@H]2O[C@H]2C[C@](C)(N)[C@H](O)[C@H](C)O2)Oc2ccc(cc2Cl)[C@H]1O [VANCOMYCIN]	Staphylococcus aureus	0.39 to 0.78 µg/mL
CC(C)c1cc2c(cc1Br)[C@@]1(C)CCC[C@@](C)(C(=O)O)[C@@H]1C/C2=N\OCCNS(=O)(=O)c1ccc(C(F)(F)F)cc1	Staphylococcus aureus	0.78 to 1.56 µg/mL
CC(C)c1cc2c(cc1Br)[C@@]1(C)CCC[C@@](C)(C(=O)O)[C@@H]1C/C2=N\OCCNS(=O)(=O)c1c(Cl)cccc1Cl	Staphylococcus aureus	1.56 to 3.13 µg/mL
Cc1ccc(C)c(S(=O)(=O)NCCO/N=C2\C[C@H]3[C@](C)(C(=O)O)CCC[C@]3(C)c3cc(Br)c(C(C)C)cc32)c1	Staphylococcus aureus	1.56 to 3.13 µg/mL
CC(C)c1cc2c(cc1Br)[C@@]1(C)CCC[C@@](C)(C(=O)O)[C@@H]1C/C2=N\OCCNS(=O)(=O)c1cccc(C(F)(F)F)c1	Staphylococcus aureus	1.56 to 3.13 µg/mL
